- Protocol Text: reversal of MRP1-mediated doxorubicin resistance, pilot screen, H69AR cells, doxorubicin co-treatment (AID 601)
- Assay Conditions: H69AR cells + 2 uM doxorubicin, CellTiter-Glo, 72 h; at 10 µM; active compounds read high
Measurement Label: differential viability (reversal) (%)
Form entry: value (%) — number only.

Q) Which value of differential viability (reversal) has been reported for `Cn1c(CN2CCOCC2)nnc1SCC(=O)NCCc1ccccc1` in the records?
A) 11.4

Q) Likewise for `O=c1c(O)c(-c2ccc(O)cc2O)oc2cc(O)cc(O)c12` ?
A) -2.28

Q) Please answer likewise for `CC(C)Oc1cccc(-c2cc(C(=O)N3CCN(S(C)(=O)=O)CC3)c3ccccc3n2)c1`
A) -9.72

Q) Further, for `COCC(=O)N(C)c1nnc(-c2ccccn2)s1` ?
A) 13.6

Q) Also need `Cc1cc(NS(=O)(=O)Cc2ccccc2)cc(C)c1OCC(=O)N1CCOCC1` , thanks.
A) 20.2

Q) Repeat with CC(CCc1ccccc1)NC(=O)CSc1nc(N)cc(N)n1 (stereo unspecified)
A) 4.75

Q) Field entry: `Cc1ccccc1NC(=O)CN1CCC(NC(=O)Nc2ccccc2)CC1`
A) -4.37

Q) Same question for `O=C1CCCN1Cc1ncnn1-c1ccccc1` please.
A) 14.7

Q) CC1(C)SC2[C@H](NC(=O)C(NC(=O)N3CCNC3=O)c3ccccc3)C(=O)N2C1C(=O)O (stereo partly specified) ?
A) 1.74

Q) Next molecule up: `O=C(CSc1nc2ccc(Cl)cc2[nH]1)NCc1ccco1`
A) -4.26

Q) Now try `COC(=O)CSc1nnc(CSc2nc(C)cc(C)n2)n1Cc1ccco1` .
A) 24.3
